# assay remarks: MRT in Sprague-Dawley rat at 10 mg/kg, iv by LC-MS/MS analysis
# Assay type: ADME, organism-based
# condition details: in vivo
measurement type: MRT (h)
Give the number; h is assumed, so skip it.

Enquiry: Field request: MRT | item: Cc1ccc(C(C)C)cc1NC(=O)Cn1c(Cc2c(Cl)cccc2Cl)nc2ccccc21
Return: 1.12

###

# system: Translocator protein (Mus musculus)
# assay remarks: Inhibition of TSPO in mouse HT22 cells assessed as protection against amyloid beta (1 to 42)-induced mitochondrial membrane potential loss by measuring recovery of mitochondrial membrane potential at 5 uM preincubated for 10 mins followed by amyloid beta (1 to 42) addition measured every 1 hr for 3 hrs by JC1 staining based fluorescence assay relative to control
# Format: cell-based
# Set-up: scale not given: the % may be the effect or the level left
# condition details: HT-22
Measured Activity by item
Give the number; % is assumed, so skip it.

// below: answered compounds
COc1ccc(OC)c(Cc2nc3ccccc3n2CC(=O)Nc2cc(C(C)(C)C)cc(C(C)(C)C)c2)c1	54
CCCSCCCNC(=O)c1ccc(CSc2nc3ncccc3n2Cc2cccc(C)c2)cc1	58
CCCN(CCC)C(=O)Cn1c(SCc2cccc(Cl)c2)nc2ccncc21	34

We next turn to a different compound, shown below.
Enquiry: Field request: Activity | item: Cc1ccc(C(C)C)cc1NC(=O)Cn1c(-c2cc(Cl)ccc2Cl)nc2cc(Cl)ccc21
Return: 60

###

# assay remarks: Total clearance in Sprague-Dawley rat at 10 mg/kg, iv by LC-MS/MS analysis
# Format: ADME, organism-based
# condition details: in vivo
measurement type: clearance (mL/min/kg)
Give the number; mL/min/kg is assumed, so skip it.

Enquiry: Field request: clearance | item: Cc1ccc(C(C)C)cc1NC(=O)Cn1c(Cc2c(Cl)cccc2Cl)nc2ccccc21
Return: 54.5

###

# system: Translocator protein (Mus musculus)
# assay remarks: Inhibition of TSPO in mouse HT22 cells assessed as protection against amyloid beta (1 to 42)-induced mitochondrial membrane potential loss by measuring recovery of ATP production at 5 uM preincubated for 10 mins followed by amyloid beta (1 to 42) addition measured after 7 hrs by luciferase reporter gene assay relative to control
# Format: cell-based
# Set-up: scale not given: the % may be the effect or the level left
# condition details: HT-22
measurement type: Activity
Please answer using a numeric value trailed by its unit.

// below: answered compounds
O=C(Cn1c(-c2cc(Cl)ccc2Cl)nc2ccccc21)Nc1cc(Cl)cc(Cl)c1	0%
NC(=O)CN1CCCC1=O	127%
O=C(NCCCN1CCOCC1)c1ccc(Cn2c(Cc3c(Cl)cccc3Cl)nc3ccccc32)cc1	1%

Enquiry: Field request: Activity | item: Cc1ccc(C(C)C)cc1NC(=O)Cc1nc2ccccc2n1Cc1ccc(C(=O)NCCCN(C)C)cc1
Return: 14%

Enquiry: Field request: Activity | item: Cc1ccc(C(C)C)cc1NC(=O)Cn1c(Cc2c(Cl)cccc2Cl)nc2ccccc21
Return: 95%

Enquiry: Field request: Activity | item: Cc1cccc(C(C)(C)C)c1NC(=O)Cn1c(-c2ccccc2)nc2ccccc21
Return: 55%

Enquiry: Field request: Activity | item: O=C(NCCN1CCCCC1)c1ccc(Cn2c(Cc3c(Cl)cccc3Cl)nc3ccccc32)cc1
Return: 4%

Enquiry: Field request: Activity | item: Cc1ccc(C(C)C)cc1NC(=O)Cc1nc2ccccc2n1Cc1ccc(C(=O)NCCCN2CCCCC2)cc1
Return: 23%

Enquiry: Field request: Activity | item: Cc1ccc(C(C)C)cc1NC(=O)Cn1c(-c2cc(Cl)ccc2Cl)nc2cc(Cl)ccc21
Return: 3%

Enquiry: Field request: Activity | item: COc1ccc(OC)c(Cc2nc3ccccc3n2CC(=O)Nc2cc(Cl)cc(Cl)c2)c1
Return: 94%
